test: qHTS assay for small molecule agonists of the p53 signaling pathway - cell viability (AID 651633); settings: p53RE-bla HCT-116 viability, ATP luminescence, 16 h; series mostly up to 83.3 µM; note: nearly all actives have a fitted effect of over 30% in size; note: potency is the fitted concentration of half-maximal effect
Inconclusive results are not listed. Calls of active or inactive are those of the source. Calls come from the whole dose curve.
observable: Potency

> print(dat)
                                    compound  observable     readout.value
 1                   CC(C)(C)NSc1nc2ccccc2s1     Potency          inactive
 2                        Cc1cccc(C(=O)O)c1O     Potency          inactive
 3                             S=c1nccc[nH]1     Potency          inactive
 4  O=c1c(O)c(-c2ccc(O)cc2O)oc2cc(O)cc(O)c12     Potency          inactive
 5  OCCN1CCN(CCCN2c3ccccc3Sc3ccc(C(F)(F)F)cc32)CC1     Potency  26.6 µM (active)
 6  CCCCCCCCCCCCOCCOCCOCCOCCOCCOCCOCCOCCOCCO     Potency  26.6 µM (active)
 7  CCN1C(=O)c2ccccc2C1Nc1ccc(OCCN2CCCCC2)cc1 (configuration not stated)     Potency          inactive
 8    COC1=C(OC)C(=O)C(CCCCCCCCCCO)=C(C)C1=O     Potency  29.8 µM (active)
 9  CC(C(=O)O)c1ccc2c(c1)[nH]c1ccc(Cl)cc12 (configuration not stated)     Potency          inactive
10  CCN(CC)c1ccc2c(-c3ccc(S(=O)(=O)O)cc3S(=O)(=O)[O-])c3ccc(=[N+](CC)CC)cc-3oc2c1     Potency  9.99 µM (active)
11  Cc1c(C)c([N+](=O)[O-])c(C(C)(C)C)c([N+](=O)[O-])c1C     Potency          inactive
12   O[C@@H]([C@H](O)[C@H](O)CBr)[C@H](O)CBr     Potency          inactive
13                       CC(C)CCCCCOC(=O)CCS     Potency          inactive
14                    C=C(C)C(=O)OCCCCCCCCCC     Potency          inactive
15   COC(=O)Nc1nc2ccc(C(=O)c3ccccc3)cc2[nH]1     Potency          inactive
16  O=S(=O)(O)c1ccccc1/C=C/c1ccc(-c2ccc(/C=C/c3ccccc3S(=O)(=O)O)cc2)cc1     Potency          inactive
17  CCCCCCC1CCCC(=O)O1 (configuration not stated)     Potency          inactive
18                            CCC(=O)C(=O)CC     Potency          inactive
19                                   CCCNCCC     Potency          inactive
20                           CN(C)Cc1ccccc1O     Potency          inactive
21  CN(C)C(=O)COC(=O)Cc1ccc(OC(=O)c2ccc(N=C(N)N)cc2)cc1     Potency          inactive
22              NC(=O)c1cccc([N+](=O)[O-])c1     Potency          inactive
23                            COc1cc(C)ccc1O     Potency          inactive
24                      c1ccc(SSc2ccccc2)cc1     Potency          inactive
25                       Nc1nc(-c2ccccc2)cs1     Potency          inactive
26     CCC(COC(=O)CCS)(COC(=O)CCS)COC(=O)CCS     Potency          inactive
27  Cc1nc2n(c(=O)c1CCN1CCC(c3noc4cc(F)ccc34)CC1)CCCC2     Potency          inactive

Where do these numbers come from? They come from PubChem BioAssay (Tox21).
